- System name: Cannabinoid receptor 2 (Homo sapiens, UniProt P34972)
- Sequence (P34972 whole entry): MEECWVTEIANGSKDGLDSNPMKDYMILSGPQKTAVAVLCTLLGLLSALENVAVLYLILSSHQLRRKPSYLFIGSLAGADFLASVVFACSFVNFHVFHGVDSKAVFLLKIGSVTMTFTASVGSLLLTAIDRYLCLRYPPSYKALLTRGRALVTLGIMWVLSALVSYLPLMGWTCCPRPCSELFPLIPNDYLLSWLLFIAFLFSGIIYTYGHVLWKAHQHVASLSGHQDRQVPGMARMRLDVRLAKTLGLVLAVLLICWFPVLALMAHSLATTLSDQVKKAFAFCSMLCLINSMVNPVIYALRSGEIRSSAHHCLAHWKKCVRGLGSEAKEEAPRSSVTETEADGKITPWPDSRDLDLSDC
- Method summary: Displacement of [3H]CP-55940 from CB2 receptor at 10 uM
Threshold 90%. Activity below it: t. Activity at it or above: f.

Smiles: CCCCCOc1c(OC)ccc2cc(C(=O)NCCc3ccc(F)cc3)c(=O)[nH]c12
System name: Cannabinoid receptor 2 (Homo sapiens, UniProt P34972)
Class label: f
//
Smiles: CCCCCOc1c(OC)ccc2cc(C(=O)NCCc3ccc(Cl)cc3)c(Cl)nc12
System name: Cannabinoid receptor 2 (Homo sapiens, UniProt P34972)
Class label: t
//
Smiles: CCCCCOc1c(OC)ccc2cc(C(=O)NCCc3ccc(OC)cc3)c(Cl)nc12
System name: Cannabinoid receptor 2 (Homo sapiens, UniProt P34972)
Class label: t
//
Smiles: CCCCCOc1c(OC)ccc2cc(C(=O)NCCCc3ccccc3)c(Cl)nc12
System name: Cannabinoid receptor 2 (Homo sapiens, UniProt P34972)
Class label: t
//
Smiles: CCCCCOc1c(OC)ccc2cc(C(=O)NCCCc3ccccc3)c(=O)[nH]c12
System name: Cannabinoid receptor 2 (Homo sapiens, UniProt P34972)
Class label: f
//
Smiles: CCCCCOc1c(OC)ccc2cc(C(=O)NCCc3ccccc3)c(=O)[nH]c12
System name: Cannabinoid receptor 2 (Homo sapiens, UniProt P34972)
Class label: f
//
Smiles: CCCCCOc1c(OC)ccc2cc(C(=O)NCCc3ccc(F)cc3)c(Cl)nc12
System name: Cannabinoid receptor 2 (Homo sapiens, UniProt P34972)
Class label: f
//
Smiles: CCCCCOc1c(OC)ccc2cc(C(=O)NCCc3ccc(Cl)cc3)c(=O)[nH]c12
System name: Cannabinoid receptor 2 (Homo sapiens, UniProt P34972)
Class label: f
//
Smiles: CCCCCOc1c(OC)ccc2cc(C(=O)NCCc3ccc(OC)cc3)c(=O)[nH]c12
System name: Cannabinoid receptor 2 (Homo sapiens, UniProt P34972)
Class label: f
//
Smiles: CCCCCOc1c(OC)ccc2cc(C(=O)NCCc3ccccc3)c(Cl)nc12
System name: Cannabinoid receptor 2 (Homo sapiens, UniProt P34972)
Class label: t

----------
- System name: Cannabinoid receptor 1 (Homo sapiens, UniProt P21554)
- Sequence (P21554 whole entry): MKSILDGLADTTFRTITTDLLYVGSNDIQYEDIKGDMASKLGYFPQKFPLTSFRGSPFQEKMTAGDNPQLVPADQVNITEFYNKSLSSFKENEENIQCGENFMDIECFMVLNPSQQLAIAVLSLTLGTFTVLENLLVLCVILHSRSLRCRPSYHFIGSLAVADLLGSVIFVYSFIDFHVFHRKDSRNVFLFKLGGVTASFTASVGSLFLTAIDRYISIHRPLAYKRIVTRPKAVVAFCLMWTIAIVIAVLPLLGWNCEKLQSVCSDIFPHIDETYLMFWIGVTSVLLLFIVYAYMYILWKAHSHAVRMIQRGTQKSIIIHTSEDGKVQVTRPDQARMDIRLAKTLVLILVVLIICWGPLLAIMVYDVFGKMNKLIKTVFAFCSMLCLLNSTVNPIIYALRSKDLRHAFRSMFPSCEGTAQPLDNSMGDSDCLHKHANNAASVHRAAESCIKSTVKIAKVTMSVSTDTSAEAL
- Method summary: Displacement of [3H]CP-55940 from CB1 receptor at 10 uM
Readout: Activity (%)

Smiles: CCCCCOc1c(OC)ccc2cc(C(=O)NCCc3ccc(Cl)cc3)c(=O)[nH]c12
Measured number: -9
--
Smiles: CCCCCOc1c(OC)ccc2cc(C(=O)NCCCc3ccccc3)c(Cl)nc12
Measured number: 66.3
--
Smiles: CCCCCOc1c(OC)ccc2cc(C(=O)NCCc3ccc(OC)cc3)c(Cl)nc12
Measured number: 71
--
Smiles: CCCCCOc1c(OC)ccc2cc(C(=O)NCCc3ccccc3)c(=O)[nH]c12
Measured number: 63.4
--
Smiles: CCCCCOc1c(OC)ccc2cc(C(=O)NCCc3ccc(Cl)cc3)c(Cl)nc12
Measured number: 34.4
--
Smiles: CCCCCOc1c(OC)ccc2cc(C(=O)NCCc3ccccc3)c(Cl)nc12
Measured number: 73.7
--
Smiles: CCCCCOc1c(OC)ccc2cc(C(=O)NCCc3ccc(F)cc3)c(Cl)nc12
Measured number: 64.8
--
Smiles: CCCCCOc1c(OC)ccc2cc(C(=O)NCCc3ccc(F)cc3)c(=O)[nH]c12
Measured number: 26.3
--
Smiles: CCCCCOc1c(OC)ccc2cc(C(=O)NCCCc3ccccc3)c(=O)[nH]c12
Measured number: 51.4
--
Smiles: CCCCCOc1c(OC)ccc2cc(C(=O)NCCc3ccc(OC)cc3)c(=O)[nH]c12
Measured number: 68.7

----------
Values of Ki reported for UniProt:P21554 appear below.
Readout: Ki (nM)

Smiles: CCCCCOc1c(OC)ccc2cc(C(=O)NCCc3ccccc3)c(=O)[nH]c12
Readout: Ki
Limit qualifier: =
Measured number: 196
//
Smiles: CCCCCOc1c(OC)ccc2cc(C(=O)NCCCc3ccccc3)c(=O)[nH]c12
Readout: Ki
Limit qualifier: =
Measured number: 323
//
Smiles: CCCCCOc1c(OC)ccc2cc(C(=O)NCCc3ccccc3)c(Cl)nc12
Readout: Ki
Limit qualifier: >
Measured number: 10000
//
Smiles: CCCCCOc1c(OC)ccc2cc(C(=O)NCCc3ccc(F)cc3)c(Cl)nc12
Readout: Ki
Limit qualifier: =
Measured number: 2880
//
Smiles: CCCCCOc1c(OC)ccc2cc(C(=O)NCCc3ccc(F)cc3)c(=O)[nH]c12
Readout: Ki
Limit qualifier: >
Measured number: 10000
//
Smiles: CCCCCOc1c(OC)ccc2cc(C(=O)NCCc3ccc(Cl)cc3)c(=O)[nH]c12
Readout: Ki
Limit qualifier: >
Measured number: 10000
//
Smiles: CCCCCOc1c(OC)ccc2cc(C(=O)NCCc3ccc(OC)cc3)c(Cl)nc12
Readout: Ki
Limit qualifier: >
Measured number: 10000
//
Smiles: CCCCCOc1c(OC)ccc2cc(C(=O)NCCc3ccc(Cl)cc3)c(Cl)nc12
Readout: Ki
Limit qualifier: >
Measured number: 10000
//
Smiles: CCCCCOc1c(OC)ccc2cc(C(=O)NCCc3ccc(OC)cc3)c(=O)[nH]c12
Readout: Ki
Limit qualifier: =
Measured number: 733
//
Smiles: CCCCCOc1c(OC)ccc2cc(C(=O)NCCCc3ccccc3)c(Cl)nc12
Readout: Ki
Limit qualifier: >
Measured number: 10000

----------
- System name: Cannabinoid receptor 2 (Homo sapiens)
Readout: Ki (µM)

Smiles: CCCCCOc1c(OC)ccc2cc(C(=O)NCCc3ccc(F)cc3)c(=O)[nH]c12
Readout: Ki
Measured number: 0.0054
//
Smiles: CCCCCOc1c(OC)ccc2cc(C(=O)NCCc3ccc(F)cc3)c(Cl)nc12
Readout: Ki
Measured number: 0.0238
//
Smiles: CCCCCOc1c(OC)ccc2cc(C(=O)NCCc3ccc(Cl)cc3)c(=O)[nH]c12
Readout: Ki
Measured number: 0.00937
//
Smiles: CCCCCOc1c(OC)ccc2cc(C(=O)NCCc3ccc(Cl)cc3)c(Cl)nc12
Readout: Ki
Measured number: 1.01
//
Smiles: CCCCCOc1c(OC)ccc2cc(C(=O)NCCCc3ccccc3)c(Cl)nc12
Readout: Ki
Measured number: 1.07
//
Smiles: CCCCCOc1c(OC)ccc2cc(C(=O)NCCc3ccccc3)c(Cl)nc12
Readout: Ki
Measured number: 0.497
//
Smiles: CCCCCOc1c(OC)ccc2cc(C(=O)NCCCc3ccccc3)c(=O)[nH]c12
Readout: Ki
Measured number: 0.0103
//
Smiles: CCCCCOc1c(OC)ccc2cc(C(=O)NCCc3ccc(OC)cc3)c(Cl)nc12
Readout: Ki
Measured number: 1.33
//
Smiles: CCCCCOc1c(OC)ccc2cc(C(=O)NCCc3ccccc3)c(=O)[nH]c12
Readout: Ki
Measured number: 0.00692
//
Smiles: CCCCCOc1c(OC)ccc2cc(C(=O)NCCc3ccc(OC)cc3)c(=O)[nH]c12
Readout: Ki
Measured number: 0.0279

----------
- Method summary: Selectivity ratio of Ki for CB1 receptor to Ki for CB2 receptor
Readout: Ratio Ki

Smiles: CCCCCOc1c(OC)ccc2cc(C(=O)NCCc3ccc(F)cc3)c(Cl)nc12
Limit qualifier: =
Measured number: 121

Smiles: CCCCCOc1c(OC)ccc2cc(C(=O)NCCc3ccc(OC)cc3)c(=O)[nH]c12
Limit qualifier: =
Measured number: 26.2

Smiles: CCCCCOc1c(OC)ccc2cc(C(=O)NCCc3ccc(Cl)cc3)c(Cl)nc12
Limit qualifier: >
Measured number: 9.92
